Consider the following compounds; for each one, report its pIC50.
# Tested on: Hela cells
# Run Description: Cell viability assay (CellTiter-Blue)
# Format: cell-based
# Particulars: Homo sapiens; Hela cells treated for 24 h, n=3
Please note pIC50 is a logarithmic value: minus log10 of concentration in mol/L. Answer with that number alone.

Query: Query (compound): C#Cc1ccc(C=C2C(=O)N(c3cccc(Br)c3)C(=S)N(c3cccc(Br)c3)C2=O)o1 [Compound 5j] ; field requested: pIC50
Result: 3.51

Query: For C#Cc1ccc(C=C2C(=O)NC(=S)N(c3cccc(F)c3)C2=O)o1 [Compound 5b] then?
Result: 4.02

Query: Could you do the same for C#Cc1ccc(C=C2C(=O)N(c3cccc(F)c3)C(=S)N(c3cccc(F)c3)C2=O)o1 [Compound 5k] , please?
Result: 4.02

Query: Further, for C#Cc1ccc(C=C2C(=O)NC(=S)N(c3cccc(Br)c3)C2=O)o1 [Compound 5a] ?
Result: 3.48
